Answer each item with its documented pEC50.
- Test system: TNFα
- measurement-description: cells
- Type: cell-based, human
- test-parameters: Homo sapiens, Monocyte, LPS-stimulated human monocytes, TNFα content; read-out: EC50 TNF
By convention, pEC50 is the negative base-10 log of a molar concentration.

I looked up CC(C)Nc1cc(-c2ccc3cc(C#N)cnn23)ncc1C(=O)NC1CC2(C1)CC(C(C)(C)O)C2 (stereo not shown) [Example 5] and its pEC50 for TNFα was 6.68

I looked up CN1CCC[C@H](Nc2cc(-c3ccc4cc(C#N)cnn34)ncc2C(=O)NC[C@@H](F)C(C)(C)O)C1 [Example 260] and its pEC50 for TNFα was 6.78

I looked up N#Cc1cnn2c(-c3cc(NC45CCC(O)(CC4)CC5)c(C(=O)NC45CCC(O)(CC4)CC5)cn3)ccc2c1 [Example 402] and its pEC50 for TNFα was 7.11

I looked up CC(C)(O)[C@H](F)CNC(=O)c1cnc(-c2ccc3cc(C#N)cnn23)cc1N[C@H]1CC[C@H](N2CCOC2=O)CC1 [Example 392] and its pEC50 for TNFα was 7.30

I looked up CC(C)(O)[C@H](F)CNC(=O)c1cnc(-c2ccc3cc(C#N)cnn23)cc1N[C@H]1C[C@H](COC(=O)N2CC(F)(F)C2)C1 [Example 738] and its pEC50 for TNFα was 7.54

I looked up CC(C)(O)[C@H](F)CNC(=O)c1cnc(-c2ccc3cc(C#N)cnn23)cc1Nc1cncc(C2CC2)c1 [Example 222] and its pEC50 for TNFα was 6.82

I looked up COC(=O)N1CCC(Nc2cc(-c3ccc4cc(C#N)cnn34)ncc2C(=O)NC[C@@H](F)C(C)(C)O)CC1 [Example 242] and its pEC50 for TNFα was 6.72
